Where do these numbers come from? They come from patent US20250034135A1.

biological target: BCL2 (Homo sapiens (Human), UniProt P10415); experiment: Molecular level activity test of anti-apoptotic protein BCL2 (HTRF, binding to Bim peptide); details: HTRF, binding of BCL2 to Bim peptide; read-out: BCL2 nM (inhibitory activity, IC50)
Sequence (P10415 whole entry): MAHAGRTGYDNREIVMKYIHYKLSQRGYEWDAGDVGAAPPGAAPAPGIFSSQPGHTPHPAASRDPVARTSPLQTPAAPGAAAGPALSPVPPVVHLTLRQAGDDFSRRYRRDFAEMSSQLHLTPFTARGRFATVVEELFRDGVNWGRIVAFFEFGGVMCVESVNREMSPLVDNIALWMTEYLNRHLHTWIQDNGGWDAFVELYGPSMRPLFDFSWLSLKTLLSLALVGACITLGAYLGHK
Observed property: IC50

{"Compound": "COc1ccc(CN2CCN(C3CC4(CCN(c5cc(Oc6cnc7[nH]ccc7c6)c(C(=O)NS(=O)(=O)c6cc([N+](=O)[O-])c(NC[C@H]7CC[C@](C)(O)CC7)c7ocnc67)cc5F)CC4)C3)[C@H](c3ccccc3C(C)C)C2)cc1", "Experimental target": "BCL2 (Homo sapiens (Human), UniProt P10415)", "IC50": "< 10 nM"}

Please find the next compound below.
Which IC50 reading was recorded for the compound COc1ccc(CN2CCN(C3CC4(CCN(c5cc(Oc6cnc7[nH]ccc7c6)c(C(=O)NS(=O)(=O)c6ccc(NC[C@H]7CC[C@](C)(O)CC7)c([N+](=O)[O-])c6)cc5F)CC4)C3)[C@H](c3ccccc3C(C)C)C2)cc1OC [compound 237] ?
< 10 nM

---

molecular target: BCL2 (Homo sapiens (Human), UniProt P10415); experiment: Molecular level activity test of anti-apoptotic protein BCL2 (HTRF, binding to Bim peptide); settings: HTRF, binding of BCL2 to Bim peptide; read-out: BCL2 nM (inhibitory activity, IC50)
pIC50: −log10 of the molar value.
Observed property: pIC50

{"Molecule": "CC(C)c1ccccc1[C@@H]1CCCN1C1CC2(CCN(c3cc(Oc4cnc5[nH]ccc5c4)c(C(=O)NS(=O)(=O)c4cc([N+](=O)[O-])c(NCC5CCOCC5)c5c4OCO5)cc3F)CC2)C1 [compound 156]", "Observed property": "pIC50", "Recorded result": "> 8.00"}

Please find the next molecule below.
Which pIC50 reading was recorded for the molecule COc1ccc(CN2CCN(C3CC4(CCN(c5cc(Oc6cnc7[nH]ccc7c6)c(C(=O)NS(=O)(=O)c6cc([N+](=O)[O-])c(NC[C@H]7COCCO7)c7ocnc67)cc5F)CC4)C3)[C@H](c3ccccc3C(C)C)C2)cc1 [compound 124] ?
> 8.00

---

target: BCL-XL (Homo sapiens (Human), UniProt Q07817); assay: BCL-XL enzyme molecular level activity test (HTRF, binding to BIM peptide); conditions: binding of BCL-XL to BIM peptide, values given in μM, read-out: BCL-XL inhibitory activity (IC50)
Sequence (Q07817 whole entry): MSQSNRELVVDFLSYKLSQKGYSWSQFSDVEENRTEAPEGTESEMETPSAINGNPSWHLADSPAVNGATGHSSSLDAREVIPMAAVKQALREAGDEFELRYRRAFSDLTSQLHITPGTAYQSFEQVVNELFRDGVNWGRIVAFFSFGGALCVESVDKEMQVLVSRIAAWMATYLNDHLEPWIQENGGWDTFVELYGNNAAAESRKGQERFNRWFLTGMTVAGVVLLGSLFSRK
Below is a list of entries, each paired with its recorded IC50 value.

Below, each entry is followed by its recorded IC50 result.
{"Compound": "COc1ccc(CN2CCN(C3CC4(CCN(c5cc(Oc6cnc7[nH]ccc7c6)c(C(=O)NS(=O)(=O)c6cc([N+](=O)[O-])c(NCC7CCOCC7)c7c6OCCO7)cc5F)CC4)C3)[C@H](c3ccccc3C(C)C)C2)cc1", "IC50": "> 20 µM"}
{"Compound": "COc1ccc(CN2CCN(C3CC4(CCN(c5cc(Oc6cnc7[nH]ccc7c6)c(C(=O)NS(=O)(=O)c6cc([N+](=O)[O-])c(NCC7CCOCC7)c7[nH]cnc67)cc5F)CC4)C3)[C@H](c3ccccc3C(C)C)C2)cc1", "IC50": "1.3 µM"}
{"Compound": "COc1ccc(CN2CCN(C3CC4(CCN(c5cc(Oc6cnc7[nH]ccc7c6)c(C(=O)NS(=O)(=O)c6ccc(NCC7(F)CCOCC7)c([N+](=O)[O-])c6)cc5F)CC4)C3)[C@H](c3ccccc3C(C)C)C2)cc1OC", "IC50": "> 1 µM"}

Please find the next compound below.
// map COc1ccc(CN2CCN(C3CC4(CCN(c5cc(Oc6cnc7[nH]cc(F)c7c6)c(C(=O)NS(=O)(=O)c6ccc(NCC7(F)CCN(C(C)C)CC7)c([N+](=O)[O-])c6)cc5F)CC4)C3)C(c3ccccc3C(C)C)C2)cc1 (stereo not shown) to recorded IC50 (system: BCL-XL (Homo sapiens (Human), UniProt Q07817))
> 1 µM
